Data provenance is the supplement of paper PMC9732359.

# Protocol Details: protein stability index of a GFP-peptide fusion (yeast GPS) (PSI 1-4); higher = more stable; sorted into four equal gates, so the index is relative within each strain
# Condition: san1∆
protein stability index of 3 or higher: satisfied. Under 3: not satisfied.

- Residue Sequence: "DTKLRLEKSKNECQRLQ [YIL149C/MLP2]"
  Label: "not satisfied"
- Residue Sequence: "DSAAIIAATGLNQINGL [GRR1]"
  Label: "not satisfied"
- Residue Sequence: "NFRTMQQQQMQQQQQQQ [SSN2]"
  Label: "not satisfied"
- Residue Sequence: "VEMAWIMGFISYHNGNL [FAS2]"
  Label: "satisfied"
- Residue Sequence: "ISPKIWCAGAGTAADTE [PUP1]"
  Label: "not satisfied"
- Residue Sequence: "VISIVGGHSLEEISFSL [PRP28]"
  Label: "satisfied"
- Residue Sequence: "KLTILQEGIEAIATTVI [RET1]"
  Label: "not satisfied"
- Residue Sequence: "ESMAYTAFQTQRTAQDR [YML031W/NDC1]"
  Label: "satisfied"
- Residue Sequence: "LRDESLTVDNLSIAIVG [PRE5]"
  Label: "not satisfied"
- Residue Sequence: "ANLMLVMLRLLLVVIFK [SRB4]"
  Label: "not satisfied"
- Residue Sequence: "ENVKIINYLLTLAITTV [RPN2]"
  Label: "not satisfied"
